- Test system: hGYS1 enzyme / glycogen synthesis in HeLa cells
- run.description: GYS1 cell based assay (glycogen synthesis, Glucose-glo)
- Set-up: species or system human
- run.parameters: 24 h incubation, 20 mM glucose, geometric mean of at least 2 runs
pIC50: −log10 of the molar value.
Listed below: pIC50 values for each entry.

| compound | bound.type | pIC50 |
| --- | --- | --- |
| Cc1cc(C(NC(=O)[C@@H]2C[C@@H](F)CN2C(=O)Cc2cnn[nH]2)c2ccccc2)cc(F)c1C(C)C (single isomer, unassigned) [Compound 678] | < | 5.00 |
| CC(C)c1ccc([C@@H](NC(=O)[C@@H]2C[C@@H](F)CN2C(=O)C(C)n2ccnc2)c2ccccc2)cc1F (single isomer, unassigned) [Compound 771] | = | 6.27 |
| CC(C(=O)N1C[C@H](F)C[C@H]1C(=O)N[C@@H](c1ccccc1)c1ccc(C2(C)CC2)c(F)n1)n1cnc2ccccc21 (single isomer, unassigned) [Compound 586] | = | 6.82 |

###

- experimental.system: hGYS1 enzyme (recombinant hGYS1/GN1 protein) (Homo sapiens (Human), UniProt P13807)
- Sequence (P13807 whole entry): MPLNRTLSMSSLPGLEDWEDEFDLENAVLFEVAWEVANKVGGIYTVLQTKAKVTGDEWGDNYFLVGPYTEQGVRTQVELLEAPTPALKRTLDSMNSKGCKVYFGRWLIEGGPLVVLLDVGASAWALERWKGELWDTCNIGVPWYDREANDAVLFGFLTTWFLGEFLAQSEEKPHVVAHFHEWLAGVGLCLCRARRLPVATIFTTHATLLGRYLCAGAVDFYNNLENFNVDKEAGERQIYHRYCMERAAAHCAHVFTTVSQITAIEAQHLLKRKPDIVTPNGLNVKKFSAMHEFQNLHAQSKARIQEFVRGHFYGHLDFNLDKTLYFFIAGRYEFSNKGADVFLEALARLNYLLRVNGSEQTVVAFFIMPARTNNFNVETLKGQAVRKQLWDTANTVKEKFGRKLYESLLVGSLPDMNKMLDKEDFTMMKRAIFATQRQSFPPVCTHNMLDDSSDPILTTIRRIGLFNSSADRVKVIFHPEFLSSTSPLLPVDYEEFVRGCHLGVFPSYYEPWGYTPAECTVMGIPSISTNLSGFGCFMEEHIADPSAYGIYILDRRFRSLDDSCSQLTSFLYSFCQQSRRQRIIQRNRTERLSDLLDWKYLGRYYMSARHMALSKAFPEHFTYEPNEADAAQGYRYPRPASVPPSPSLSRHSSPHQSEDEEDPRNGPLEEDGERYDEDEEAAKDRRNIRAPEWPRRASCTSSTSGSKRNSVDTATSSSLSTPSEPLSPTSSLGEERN
- Sequence (P46976 whole entry partner): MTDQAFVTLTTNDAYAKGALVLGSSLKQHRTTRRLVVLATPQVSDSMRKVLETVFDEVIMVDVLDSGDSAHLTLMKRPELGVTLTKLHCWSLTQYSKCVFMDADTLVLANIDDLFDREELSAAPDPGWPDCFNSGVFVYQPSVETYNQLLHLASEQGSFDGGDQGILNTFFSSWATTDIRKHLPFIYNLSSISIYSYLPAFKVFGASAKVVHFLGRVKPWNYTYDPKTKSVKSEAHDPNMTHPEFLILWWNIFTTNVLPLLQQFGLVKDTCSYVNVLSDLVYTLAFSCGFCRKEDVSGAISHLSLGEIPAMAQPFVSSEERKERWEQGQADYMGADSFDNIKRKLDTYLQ
- run.description: GYS1 coupled enzyme assay (PK/LDH)
- run.parameters: hGYS1/GN1 50 nM, UDP-Glucose 0.8 mM, G6P 1 mM; geometric mean of at least 2 runs
pIC50: −log10 of the molar value.
Entries and their pIC50 values follow.
readout.type: pIC50

| compound | observed |
| --- | --- |
| O=C(N[C@@H](c1ccccc1)c1ccc(C2CC2)c(F)n1)[C@@H]1C[C@@H](F)CN1C(=O)Cc1c[nH]c(=O)cn1 [Compound 746] | 7.15 |
| O=C(N[C@@H](c1ccccc1)c1ccc(C2CC2)c(F)n1)[C@@H]1C[C@@H](F)CN1C(=O)Cn1nncc1C(F)F [Compound 747] | 7.80 |
| CC(C)c1ccc([C@@H](NC(=O)[C@@H]2C[C@@H](F)CN2C(=O)Cc2cnccn2)c2ccccc2)cc1 [Compound 26] | 7.44 |
| O=C(N[C@@H](c1ccccc1)c1ccc(C2CC2)c(F)c1)[C@@H]1C[C@@H](F)CN1C(=O)CNc1cnccn1 [Compound 471] | 7.54 |
| Cc1cn(CC(=O)N2C[C@H](F)C[C@H]2C(=O)N[C@@H](c2ccccc2)c2ccc(C(C)C)c(F)c2)nn1 [Compound 373] | 7.85 |
| COc1nc(CC(=O)N2C[C@H](F)C[C@H]2C(=O)N[C@@H](c2ccccc2)c2ccc(C(C)C)cn2)nn1C [Compound 712] | 7.82 |
| CC(C)c1ccc([C@@H](NC(=O)[C@@H]2C[C@@H](F)CN2C(=O)Cc2cncnc2)c2ccccc2)cc1 [Compound 27] | 7.64 |
| O=C(N[C@@H](c1ccccc1)c1ccc(C2CC2)c(F)c1)[C@@H]1C[C@@H](F)CN1C(=O)Cc1nnc(C2CC2)o1 [Compound 429] | 6.94 |
| CC(=O)N1CCC2(CCC(C(=O)N3C[C@H](F)C[C@H]3C(=O)N[C@@H](c3ccccc3)c3ccc(C(C)C)cc3)C2)CC1 (stereo partly shown) [Compound 184] | 7.12 |
| CC(C)c1ccc([C@@H](NC(=O)[C@@H]2C[C@@H](F)CN2C(=O)Cc2nnc(C(F)F)o2)c2ccccc2)nc1 [Compound 253] | 7.17 |
| CC(C)c1ccc([C@@H](NC(=O)[C@@H]2C[C@@H](F)CN2C(=O)Cc2nn(C)c(=O)[nH]2)c2ccccc2)nc1 [Compound 263] | 7.10 |
| O=C(N[C@@H](c1ccccc1)c1ccc(C2CC2)c(F)c1)[C@@H]1C[C@@H](F)CN1C(=O)CN1CCNCC1=O [Compound 465] | 6.26 |
| CC1(c2ccc([C@@H](NC(=O)[C@@H]3C[C@@H](F)CN3C(=O)CN3CCN(C(=O)OCC(F)(F)F)CC3=O)c3ccccc3)cc2F)CC1 [Compound 578] | 6.21 |

meta.source: patent US11814367B2
